# targetOrTestSystem: glucocerebrosidase (Gcase) (Homo sapiens, UniProt P04062)
# Construct: micellar solution containing 10 nM GCase and 100 nM saposin C
# Sequence (P04062 40-536): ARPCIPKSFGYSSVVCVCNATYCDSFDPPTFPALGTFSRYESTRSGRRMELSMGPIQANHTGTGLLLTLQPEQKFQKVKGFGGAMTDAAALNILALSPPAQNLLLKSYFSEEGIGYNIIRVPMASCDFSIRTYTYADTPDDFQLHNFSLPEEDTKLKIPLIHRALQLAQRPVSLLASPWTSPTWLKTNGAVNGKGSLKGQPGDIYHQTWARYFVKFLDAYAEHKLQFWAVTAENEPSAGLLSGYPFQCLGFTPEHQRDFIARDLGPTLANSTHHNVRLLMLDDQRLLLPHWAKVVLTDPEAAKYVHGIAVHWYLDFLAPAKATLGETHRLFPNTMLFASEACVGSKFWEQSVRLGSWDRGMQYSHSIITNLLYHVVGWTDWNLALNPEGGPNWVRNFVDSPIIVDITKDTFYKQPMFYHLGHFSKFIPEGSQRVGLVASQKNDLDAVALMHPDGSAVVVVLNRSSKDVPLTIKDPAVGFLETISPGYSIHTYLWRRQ
# protocolDetails: Glucocerebrosidase (Gcase) activation assay, 4-methylumbelliferyl-beta-D-glucopyranoside substrate, fluorescence readout
# Format: biochemical
# setupConditions: test compound at 1.0 μM; read-out: Percent Gcase Activation, 1 μM Test Compound
compounds and their reported activation at 1 µM
measuredEndpoint: activation at 1 µM

compound: Cc1cc(C)n2ccc(C(=O)NC3CC=C(c4cccs4)CC3)c2n1 (centres unmarked) [III-186]
targetOrTestSystem: glucocerebrosidase (Gcase) (Homo sapiens, UniProt P04062)
measuredEndpoint: activation at 1 µM
testValue: > 60%
--
compound: O=C(NC1CCCc2ccccc21)c1ccn2c(C(F)F)cc(C(F)F)nc12 (centres unmarked) [III-24]
targetOrTestSystem: glucocerebrosidase (Gcase) (Homo sapiens, UniProt P04062)
measuredEndpoint: activation at 1 µM
testValue: > 60%
--
compound: COc1cc(-c2cocn2)ccc1NC(=O)c1ccn2c(C)cc(C)nc12 [III-109]
targetOrTestSystem: glucocerebrosidase (Gcase) (Homo sapiens, UniProt P04062)
measuredEndpoint: activation at 1 µM
testValue: > 60%
--
compound: Cc1cc(C)n2ccc(C(=O)NC3CCC(C(=O)N(C)C4CC4)CC3)c2n1 (centres unmarked) [III-134]
targetOrTestSystem: glucocerebrosidase (Gcase) (Homo sapiens, UniProt P04062)
measuredEndpoint: activation at 1 µM
testValue: < 30%
--
compound: Cc1cc(C)n2ccc(C(=O)NC3CCCc4ccc(-c5cocn5)cc43)c2n1 (centres unmarked) [III-122]
targetOrTestSystem: glucocerebrosidase (Gcase) (Homo sapiens, UniProt P04062)
measuredEndpoint: activation at 1 µM
testValue: > 60%
